Numbers sourced from patent US4798892A.

measurement.notes: Enzymatic hydrolysis of beta blockers by dog aqueous humor (procedure C)
Type: in vitro ADME
measurement.conditions: 2 hr, 37° C., read-out: Percent drug remaining, dog aqueous humor, 2 HR
Protocol: Chemicals--Acetonitrile was "HPLC" grade. Distilled water was used to dissolve the compounds and 0.01N HCl was used to dissolve compounds requiring an acidic pH for dissolution. […] Sample Processing and Data Analyses--All samples were centrifuged at 4000 RPM for 10 min to sediment denatured proteins. The resultant supernatants were transferred to WISP® vials and analyzed using an HPLC assay developed for beta blockers. […]
Counter-ions that a name gives are not always drawn.
Response field label takes Yes when remaining at 2 h is strictly below 30% and No in all other cases.

{"columns": ["compound", "class.assignment"],
 "data": [
  ["CC(C)(CNC(N)=O)NCC(O)COC(=O)c1ccccc1F (stereo not drawn)", "Yes"],
  ["CCOC(=O)NCC(C)(C)NCC(O)COC(=O)c1ccccc1F (stereo not drawn) [IX, Hydrochloride]", "Yes"],
  ["CC(C)C(=O)NCC(C)(C)NCC(O)COC(=O)c1ccccc1F (stereo not drawn) [Example V, Oxalate Monohydrate]", "No"],
  ["CC(C)(CNC(=O)N1CCOCC1)NCC(O)COC(=O)c1ccccc1F (stereo not drawn) [Example II, Hydrochloride]", "No"],
  ["CC(=O)NCC(C)(C)NCC(O)COC(=O)c1ccccc1F (stereo not drawn)", "No"],
  ["CC(C)(CNC(=O)Cc1ccccc1)NCC(O)COC(=O)c1ccccc1F (stereo not drawn) [Example VII, Hydrochloride]", "No"]
]}

----------
measurement.notes: Enzymatic hydrolysis of beta blockers by dog aqueous humor (procedure C)
Assay type: in vitro ADME
measurement.conditions: approximate value determined by procedure C, read-out: T1/2 dog aqueous humor
Where a name gives a salt, the structure may show the parent alone.
Recorded measurements of half-life, one per entry
measure.name: half-life

{"columns": ["compound", "result"],
 "data": [
  ["CC(C)(CNC(=O)Cc1ccccc1)NCC(O)COC(=O)c1ccccc1F (stereo not shown) [Example VII, Hydrochloride]", "~2 h"],
  ["CC(=O)NCC(C)(C)NCC(O)COC(=O)c1ccccc1F (stereo not shown) [IV]", "~2 h"],
  ["CC(C)(CNC(=O)N1CCOCC1)NCC(O)COC(=O)c1ccccc1F (stereo not shown) [Example II, Hydrochloride]", "1 to 2 h"],
  ["CC(C)C(=O)NCC(C)(C)NCC(O)COC(=O)c1ccccc1F (stereo not shown) [Example V, Oxalate Monohydrate]", "~2 h"]
]}

----------
system.tested: beta adrenergic receptor (guinea pig right atria) (Cavia porcellus, UniProt H0W3H1)
Construct: guinea pig right atria and guinea pig tracheal strips mounted in a tissue bath; from tissue; host or cells: guinea pig right atria, spontaneously beating
Sequence (H0W3H1 1-470): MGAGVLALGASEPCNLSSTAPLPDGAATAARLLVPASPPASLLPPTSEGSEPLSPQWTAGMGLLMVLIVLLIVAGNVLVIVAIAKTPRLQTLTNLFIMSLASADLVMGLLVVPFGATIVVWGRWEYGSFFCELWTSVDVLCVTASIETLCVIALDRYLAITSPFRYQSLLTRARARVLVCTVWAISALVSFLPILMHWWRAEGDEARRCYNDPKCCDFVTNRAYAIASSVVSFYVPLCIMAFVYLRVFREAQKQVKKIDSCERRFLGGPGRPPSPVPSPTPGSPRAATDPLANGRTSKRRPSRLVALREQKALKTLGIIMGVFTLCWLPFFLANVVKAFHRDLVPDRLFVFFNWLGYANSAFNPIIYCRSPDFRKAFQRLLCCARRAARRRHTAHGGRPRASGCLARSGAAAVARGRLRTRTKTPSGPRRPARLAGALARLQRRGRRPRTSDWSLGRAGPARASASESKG
measurement.notes: Beta-blocking activity in vitro, guinea pig right atria (blockade of isoproterenol rate response)
measurement.conditions: Table I; guinea pig right atria, isoproterenol agonist, 60-minute incubation, 37° C.; read-out: PA2 Rt. Atria (converted)
Structures can show the parent of a compound that is named as a salt.
Response field label takes Yes when Kb is strictly below 80 nM and No in all other cases.

{"columns": ["compound", "class.assignment"],
 "data": [
  ["CC(C)(CNC(=O)N1CCOCC1)NCC(O)COC(=O)c1ccccc1F (centres unmarked) [Example II, Hydrochloride]", "Yes"],
  ["CC(C)(CNC(=O)C1CCCCC1)NCC(O)COC(=O)c1ccccc1F (centres unmarked) [Example VI]", "Yes"],
  ["COCCOC(=O)NCC(C)(C)NCC(O)COC(=O)c1ccccc1F (centres unmarked) [XXXI]", "Yes"],
  ["CC(C)C(=O)NCC(C)(C)NCC(O)COC(=O)c1ccccc1F (centres unmarked) [Example V, Oxalate Monohydrate]", "No"],
  ["CC(C)(CNC(=O)N1CCOCC1)NCC(O)COC(=O)c1ccccc1Cl (centres unmarked) [XXXIV]", "Yes"],
  ["O=C(Cc1ccccc1)NCCNCC(O)COC(=O)c1ccccc1F (centres unmarked) [XIII, Hydrochloride]", "No"],
  ["CN(C)S(=O)(=O)NCC(C)(C)NCC(O)COC(=O)c1ccccc1F (centres unmarked) [XXXII]", "Yes"],
  ["CC(C)(CNS(=O)(=O)c1ccccc1)NCC(O)COC(=O)c1ccccc1F (centres unmarked) [VIII]", "No"],
  ["CC(C)(CNC(=O)N1CCOCC1)NCC(O)COC(=O)c1ccc(O)c(O)c1 (centres unmarked) [Example XXXV, Oxalate Monohydrate]", "Yes"]
]}
